TARGET OF ASSAY: Beta-lactamase CcrA (Bacteroides fragilis)
MEASUREMENT DESCRIPTION: Inhibitory activity against CCRA (Bacteroides fragilis) metallo-beta-lactamase
ENDPOINT LABEL: IC50

Worked examples follow.
1) C[C@@H](NC(=O)COc1ccccc1)C(=O)S[C@H](Cc1ccc(-c2ccccc2)cc1)C(=O)O	930 µM
2) CC(=O)S[C@H](Cc1ccccc1)C(=O)O	> 1000 µM
3) C[C@@H](NC(=O)Cc1ccccc1)C(=O)S[C@H](Cc1ccc(-c2ccccc2)cc1)C(=O)O	> 1500 µM
4) O=C(O)[C@H](S)Cc1ccc(-c2ccccc2)cc1	750 µM
5) CC(=O)S[C@H](Cc1ccc2oc3ccccc3c2c1)C(=O)O	> 500 µM
6) CC(=O)S[C@H](Cc1ccc(-c2ccccc2)cc1)C(=O)O	750 µM
7) C[C@@H](NC(=O)CCC(=O)O)C(=O)S[C@H](Cc1ccc(-c2ccccc2)cc1)C(=O)O	> 1500 µM

Next:
Request: Requested read-out IC50, target or system Beta-lactamase CcrA (Bacteroides fragilis), entry C[C@@H](NC(=O)Cc1cccc2ccccc12)C(=O)S[C@H](Cc1ccc(-c2ccccc2)cc1)C(=O)O
Response: > 1500 µM
